# TEST SYSTEM: T1, SEMG2(442-453) fragment (human)
# T1 peptide: IHGKSQNQVTIP
# ASSAY: ELISA, immobilized antigen SEMG2 (442-453)

BINDER: MM08 (antibody, IgG1, V domains shown) VH: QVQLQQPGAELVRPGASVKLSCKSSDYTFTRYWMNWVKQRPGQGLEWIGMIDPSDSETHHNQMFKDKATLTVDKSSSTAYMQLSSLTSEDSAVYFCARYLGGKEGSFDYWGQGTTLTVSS VL: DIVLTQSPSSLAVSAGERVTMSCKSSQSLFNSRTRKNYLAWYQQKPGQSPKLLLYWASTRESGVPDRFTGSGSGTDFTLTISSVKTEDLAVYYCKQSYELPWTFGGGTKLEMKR
A450 absorbance: 0.008

Data origin: patent US20230080534A1
